- testSystem: T1, USH1C_1, Q9Y6N9
- T1 sequence (Q9Y6N9 82-179, limits assumed, looked up): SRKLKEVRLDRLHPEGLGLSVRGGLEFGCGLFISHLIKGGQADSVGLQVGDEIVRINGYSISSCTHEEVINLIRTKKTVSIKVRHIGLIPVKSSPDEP
- protocol: holdup assay
- Design: key: below the threshold = too weak to quantify, mostly under pKd 3.1 to 4
- testConditions: plain residues with an end cap or a label only (N-terminal biotin on a linker: ttds)
valueKind: pKd

binder	observedValue
SKPTRRETEV [HPV35-E6, P27228]	below the threshold
QRQARSETLV [HPV59-E6, Q81964]	below the threshold
SSLQSLETSV [ATP2B4, P23634]	below the threshold
RLQRRRETQV [HPV18-E6, P06463]	below the threshold
